Assay: Components of the Cytosolic LPS Sensing Pathway: Gene Identification via Genome-wide siRNA Screen
Settings: RAW264.7 macrophages, IL-1a HTRF, actives lie on both sides, screened at 100 nM (by protocol), cells primed 5 h with Pam3CSK4 first
About 3,700 (7%) of roughly 53,000 sequences were called active.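 How the source made its calls: active means gene knockdowns whose robust z-score for IL-1 alpha signal is at least 2 or at most -2, so actives lie on both sides; inactive means the rest.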 The entries come from a sample that favours actives as a whole.
Use one of these outcomes when replying: active, inactive

Short answer needed: outcome of this test for GGACAAACCUUGGAAGAUUTT against Ccdc166 ? inactive

Short answer needed: outcome of this test for GCGUAUUCAGCUGGGAUAGTT against Marveld2 ? active

Short answer needed: outcome of this test for GCUUAAUUUCAUUUCAAGGTT against B3gnt5 ? inactive

Short answer needed: outcome of this test for GGACAAGAACCUGAAGCGGTT against Cdk5r1 ? inactive

Short answer needed: outcome of this test for GGAACCUAUUUUUUCGUAUTT against Gen1 ? inactive

Short answer needed: outcome of this test for GGAACUUAAGAACUUUCUATT against Calb1 ? active

Short answer needed: outcome of this test for GUUACUUUGAUGUUGUCUATT against Pdgfrl ? inactive

Short answer needed: outcome of this test for GCAGAGGCUCUCCUUAUAGTT against Ccser2 ? inactive

Short answer needed: outcome of this test for GGUGCAACAAUCAUUUGAATT against Casp4 ? inactive

Short answer needed: outcome of this test for GGGAGAAAAAGGCAUUUUUTT against Them5 ? inactive

Short answer needed: outcome of this test for GGACUUUUCUGCUAUUUACTT against Kcnh2 ? inactive

Short answer needed: outcome of this test for CCUCCGGAGUAUAAACAAUTT against Nr1i3 ? inactive

Short answer needed: outcome of this test for GGUGUUGGAGACCAUGGAUTT against Clcn6 ? inactive

Short answer needed: outcome of this test for GGAAAUUUCAGUCGUAGUATT against Mgat4c ? inactive

Short answer needed: outcome of this test for GCAUUCAGAAAUUGAGGGUTT against Sin3b ? inactive

Short answer needed: outcome of this test for CCAAACUUAAACAUGUUGUTT against Ddx21 ? inactive

Short answer needed: outcome of this test for GGAGAAGAAGUGCUUCCCUTT against Gls2 ? active

Short answer needed: outcome of this test for GGCAGAUGGCCGAAUUGAUTT against Rest ? inactive

Short answer needed: outcome of this test for CCCAGAACGGGAUGAUUCUTT against Trex2 ? active

Short answer needed: outcome of this test for GGUAUGUCUGCAUAAAUGUTT against Cyp2c38 ? active

Short answer needed: outcome of this test for GGACAACGAUAGCUAACCUTT against Tmem63a ? inactive

Short answer needed: outcome of this test for GGUGGACUUCGAGAACAUATT against Cyp2d26 ? inactive

Short answer needed: outcome of this test for GCAAUGUGUGGUAAGUAAATT against Zfp738 ? inactive

Short answer needed: outcome of this test for GGUAAAAUCACUUCAGAUCTT against Phb ? active

Short answer needed: outcome of this test for CACAGAACAUCAUCUCCCATT against Olfr887 ? active

Short answer needed: outcome of this test for CCUUCAAGAUAAAUUGACATT against Tango6 ? inactive

Short answer needed: outcome of this test for GGUGUAUUUUUUCACUGUUTT against Olfr339 ? inactive

Short answer needed: outcome of this test for GGAAAAAAAAGUCUUCCUATT against Ttll6 ? inactive

Short answer needed: outcome of this test for CCGACAGACUCACAUACUGTT against Trex1 ? inactive

Short answer needed: outcome of this test for GGAGAAGGAACUGUGUGAGTT against Nfkbil1 ? active

Short answer needed: outcome of this test for GCCGCAUUGAGUACAUGGUTT against Ap1m1 ? inactive

Short answer needed: outcome of this test for GGUUUUUGAUAAUUGCCAUTT against Gcsh ? inactive

Short answer needed: outcome of this test for GGCUCUAUGUUUAUAAUGATT against Olfm5 ? active
